- tgt: indoleamine 2, 3-dioxygenase (IDO1) (Homo sapiens, UniProt P14902)
- Construct: human peripheral blood mononuclear cells (PBMC) (PB003F; host or cells: human PBMC stimulated with IFN-gamma and LPS
- Sequence (P14902 whole entry): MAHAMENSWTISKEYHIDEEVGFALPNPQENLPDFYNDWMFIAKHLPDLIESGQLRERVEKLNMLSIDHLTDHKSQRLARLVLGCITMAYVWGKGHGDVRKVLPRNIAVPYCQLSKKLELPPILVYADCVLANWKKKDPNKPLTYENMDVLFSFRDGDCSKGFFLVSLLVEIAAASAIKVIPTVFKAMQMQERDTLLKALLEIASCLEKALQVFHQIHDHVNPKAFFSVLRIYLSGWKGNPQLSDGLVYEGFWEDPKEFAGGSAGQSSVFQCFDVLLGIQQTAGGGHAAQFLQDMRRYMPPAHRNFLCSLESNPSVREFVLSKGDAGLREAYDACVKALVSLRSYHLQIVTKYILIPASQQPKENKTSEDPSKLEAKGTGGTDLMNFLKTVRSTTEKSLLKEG
- test: PBMC IDO1 assay (kynurenine detection via mass spectrometry)
- Format: cell-based
- details: human PBMC stimulated with IFN-γ and LPS, 2 days, kynurenine by mass spectrometry; read-out: IDO1 PBMC pIC50 (converted)
compounds and their reported IC50
assayMetric: IC50 (nM)

>>> experimentalresult("CC(C)C(CC1CCN(C(=O)OC(C)(C)C)CC1)NC(=O)c1ccc(Cl)s1 (centres unmarked)")
25.1
>>> experimentalresult("O=C(NC(CC1CCN(S(=O)(=O)C2CCCC2)CC1)c1ccccc1)c1ccc(Cl)cc1 (centres unmarked)")
200
>>> experimentalresult("O=C(NC(CC1CCN(C(=O)OCc2ccccc2)CC1)c1ccccc1)c1ccc(Cl)cc1 (centres unmarked)")
31.6
>>> experimentalresult("CC(C)C(CC1CCN(C(=O)OC(C)(C)C)CC1)NC(=O)c1ccc(Br)cc1 (centres unmarked)")
15.8
>>> experimentalresult("CC(C)CC(CC1CCN(C(=O)Oc2ccccc2)CC1)NC(=O)c1ccc(Cl)s1 (centres unmarked)")
6.31
>>> experimentalresult("Cc1cc(C(=O)NC(CC2CCN(C(=O)OC(C)(C)C)CC2)c2ccccc2)cs1 (centres unmarked)")
79.4
>>> experimentalresult("COC(=O)N1CCC(C[C@@H](NC(=O)c2ccc(Cl)s2)C2CC2)CC1")
316
>>> experimentalresult("C[C@H](CC1CCN(C(=O)OC(C)(C)C)CC1)NC(=O)c1ccc(Cl)s1")
5.01
>>> experimentalresult("COC(=O)N1CCC(C[C@H](NC(=O)c2ccc(Cl)s2)C2CC2)CC1")
7.94
>>> experimentalresult("CCN(C)c1nnc(C(CC2CCN(C(=O)OC(C)(C)C)CC2)NC(=O)c2ccc(C)s2)o1 (centres unmarked)")
10
>>> experimentalresult("CC(C)(C)OC(=O)N1CCC(CC(NC(=O)c2ccc(F)c(F)c2)c2ccccc2)CC1 (centres unmarked)")
79.4
>>> experimentalresult("COc1cccc(C(=O)NC(CC2CCN(C(=O)OC(C)(C)C)CC2)c2ccccc2)c1 (centres unmarked)")
501
>>> experimentalresult("CC(C)CNCC(CC1CCN(C(=O)OC(C)(C)C)CC1)NC(=O)c1ccc(F)cc1 (centres unmarked)")
501
>>> experimentalresult("CC(=O)N1CCC(CC(NC(=O)c2ccc(Cl)cc2)c2ccccc2)CC1 (centres unmarked)")
501
>>> experimentalresult("O=C(NC(CC1CCN(C(=O)OC2COC2)CC1)c1ccccc1)c1ccc(Cl)cc1 (centres unmarked)")
158
>>> experimentalresult("CC(C)(C)OC(=O)N1CCC(CC(NC(=O)c2ccccc2O)c2ccccc2)CC1 (centres unmarked)")
251
>>> experimentalresult("CCOC(=O)N1CCC(C[C@H](NC(=O)c2ccc(C)s2)C2CC2)CC1")
5.01
